- Tested on: SEM cells
- assay.remarks: cell viability relative to DMSO control; higher = less cytotoxic
- setup.conditions: RPMI 5 mM glucose + 10% dialyzed FBS; 48 h; 1.71 µM
Below, each entry is listed with its recorded cell viability.
value.type: cell viability

>>> experimental_result("CC(C)CC(=O)N[C@H](C(=O)N[C@H](C(=O)N[C@@H](CC(C)C)[C@@H](O)CC(=O)N[C@@H](C)C(=O)N[C@@H](CC(C)C)[C@@H](O)CC(=O)O)C(C)C)C(C)C")
"99.1%"
>>> experimental_result("Cc1c(C(=O)NN2CCCCC2)nn(-c2ccc(Cl)cc2Cl)c1-c1ccc(Cl)cc1")
"144%"
>>> experimental_result("CNC1CCC(N(Cc2cccc(-c3ccncc3)c2)C(=O)c2sc3c(F)ccc(F)c3c2Cl)CC1 (stereo not drawn)")
"91.9%"
>>> experimental_result("C#C[C@]1(O)CC[C@H]2[C@@H]3CCc4cc(O)ccc4[C@H]3CC[C@@]21C")
"114%"
>>> experimental_result("CC(C)C(=O)Nc1ccc([N+](=O)[O-])c(C(F)(F)F)c1")
"157%"
>>> experimental_result("CN1CCN(c2ccc([N+](=O)[O-])c3no[n+]([O-])c23)CC1")
"93.3%"
>>> experimental_result("COc1ccc(-c2nc(N3CCOCC3)c3sc(CN(C)c4ncc(C(=O)NO)cn4)cc3n2)cn1")
"6.58%"
>>> experimental_result("CN(NC(=O)CC(=O)NN(C)C(=S)c1ccccc1)C(=S)c1ccccc1")
"4.74%"

* * *

- System: P12-Ichikawa
- assay.remarks: cell viability relative to DMSO control; higher = less cytotoxic
- setup.conditions: RPMI 5 mM glucose + 10% dialyzed FBS; 48 h; 0.000781 µM
Below, each entry is listed with its recorded cell viability.
value.type: cell viability (%)

>>> experimental_result("CC(N)C12CC3CC(CC(C3)C1)C2 (stereo not given)")
105
>>> experimental_result("N=C(NCCCCCCNC(=N)NC(=N)Nc1ccc(Cl)cc1)NC(=N)Nc1ccc(Cl)cc1")
85.4
>>> experimental_result("CC(C)(C)c1[nH]cnc1/C=c1\\[nH]c(=O)/c(=C/c2ccccc2)[nH]c1=O")
103
>>> experimental_result("C[S+](=O)([O-])N1CCc2c(-c3cnc(N)nc3)nc(N3CCOCC3)nc21")
98.2
>>> experimental_result("COC1=CC=C(C=C1)C/2=C/OC3=C(C(=CC(=C3)O)O)C2=O")
118

* * *

Below, each entry is listed with its recorded cell viability.
- System: P12-Ichikawa
- assay.remarks: cell viability relative to DMSO control; higher = less cytotoxic
- setup.conditions: HPLM + 10% dialyzed FBS; 48 h; 0.0632 µM
value.type: cell viability

>>> experimental_result("C\\C1=C(\\C=C(\\C#N)C(=O)N1)C2=CC=NC=C2")
"105%"
>>> experimental_result("O=C(Nc1ccccc1-c1cn2c(CN3CCNCC3)csc2n1)c1cnc2ccccc2n1")
"90.1%"
>>> experimental_result("Cc1cc(C(C)(C)C)c(O)c(C)c1CC1=NCCN1")
"100%"
>>> experimental_result("C[C@]1(c2nc3c(C(N)=O)cccc3[nH]2)CCCN1")
"82.2%"
>>> experimental_result("CN1CCN(c2ccc([N+](=O)[O-])c3no[n+]([O-])c23)CC1")
"99%"
>>> experimental_result("CN(C)C1=CC=C(C=C1)C(C2=CC=C(C=C2)N(C)C)=C/3\\C=C/C(/C=C3)=[N+](C)C")
"115%"
>>> experimental_result("C/C=C1\\C2C=C(C)CC1(N)c1ccc(=O)[nH]c1C2 (centres undefined)")
"109%"
>>> experimental_result("C[C@]12CC[C@@H]3c4ccc(O)cc4C[C@@H](CCCCCCCCC[S+]([O-])CCCC(F)(F)C(F)(F)F)[C@H]3[C@@H]1CC[C@@H]2O (some centres undefined)")
"112%"
>>> experimental_result("O=C(O)C1=NC(C(=O)O)CC(/C=C/N2c3cc(O)c(OC4OC(CO)C(O)C(O)C4O)cc3CC2C(=O)O)=C1 (centres undefined)")
"98.5%"

* * *

- Tested on: P12-Ichikawa
- assay.remarks: cell viability relative to DMSO control; higher = less cytotoxic
- setup.conditions: RPMI 5 mM glucose + 10% dialyzed FBS; 48 h; 0.00702 µM
value.type: cell viability (%)

>>> experimental_result("CCOC(=O)\\C1=C(/C)N\\C2=C(C1C3=CC=C(C=C3)C4=CC=CC=C4)\\C(=O)CC(C)(C)C2 (centres undefined)")
116
>>> experimental_result("Cc1cnc(NC(=O)Nc2cc(Br)c(C)cc2OC[C@@H]2CNCCO2)cn1")
118
>>> experimental_result("C[N]1C=C(C2=C1C=CC=C2)\\C3=C(\\C(=O)NC3=O)C4=C5CC(CN)CC[N]5C6=C4C=CC=C6 (centres undefined)")
119
>>> experimental_result("COC1=C2OC(=O)\\C=C/C2=CC3=C1OC=C3")
119
>>> experimental_result("CC(C)(C)c1[nH]cnc1/C=c1\\[nH]c(=O)/c(=C/c2ccccc2)[nH]c1=O")
32.7
>>> experimental_result("COC(=O)[C@@H]1[C@H]2C[C@H]3c4[nH]c5ccccc5c4CCN3C[C@@H]2CC[C@@H]1O")
114
>>> experimental_result("CN1C[C@H]2c3ccccc3Oc3ccc(Cl)cc3[C@@H]2C1")
82.3
>>> experimental_result("O=C(Nc1ccc(F)c(C(F)(F)F)c1)Nc1nnc(-c2ccncc2)s1")
129
>>> experimental_result("CCC(C)(Oc1ccc(C2(c3ccc(OC(C)(CC)C(=O)O)cc3)CCCCC2)cc1)C(=O)O (centres undefined)")
89

* * *

Below, each entry is listed with its recorded cell viability.
- System: SEM cells
- assay.remarks: cell viability relative to DMSO control; higher = less cytotoxic
- setup.conditions: HPLM + 10% dialyzed FBS; 48 h; 0.0632 µM
value.type: cell viability (%)

>>> experimental_result("CC1(C)O[C@@H]2C[C@H]3[C@@H]4CCC5=CC(=O)C=C[C@]5(C)[C@H]4[C@@H](O)C[C@]3(C)[C@]2(C(=O)CO)O1")
72.8
>>> experimental_result("C=C[C@H]1CN2CC[C@H]1C[C@H]2[C@H](O)c1ccnc2ccc(OC)cc12")
106
>>> experimental_result("COCCCN1CCC(NC(=O)c2cc(Cl)c(N)c3c2OCC3)CC1")
129
>>> experimental_result("COc1ccc(C2CNC(=O)C2)cc1OC1CCCC1 (stereo unspecified)")
106
>>> experimental_result("C/C=C(/C)C(=O)O[C@H]1C(C)=C[C@]23C(=O)[C@@H](C=C(CO)[C@@H](O)[C@]12O)[C@H]1[C@@H](C[C@H]3C)C1(C)C")
92.4
>>> experimental_result("NC\\1=N\\C(=O)N(\\C=C1)[C@@H]2O[C@H](CO)[C@@H](O)[C@H]2O")
117
>>> experimental_result("O=C(NC[C@H](O)CO)c1ccncc1Nc1ccc(I)cc1F")
106
>>> experimental_result("CN1CCN(c2ccc([N+](=O)[O-])c3no[n+]([O-])c23)CC1")
81.1
>>> experimental_result("Cc1cn([C@@H]2O[C@H](CO)[C@@H](O)[C@@H]2F)c(=O)[nH]c1=O")
110
>>> experimental_result("COc1ccc(-n2nc(C(N)=O)c3c2C(=O)N(c2ccc(N4CCCCC4=O)cc2)CC3)cc1")
120
>>> experimental_result("COC(=O)[C@@H]1[C@H]2C[C@H]3c4[nH]c5ccccc5c4CCN3C[C@@H]2CC[C@@H]1O")
104

* * *

- Test system: NOMO1
- assay.remarks: cell viability relative to DMSO control; higher = less cytotoxic
- setup.conditions: RPMI 5 mM glucose + 10% FBS; 48 h; 0.0211 µM
Below, each entry is listed with its recorded cell viability.
value.type: cell viability (%)

>>> experimental_result("N[C@H](CSC(c1ccccc1)(c1ccccc1)c1ccccc1)C(=O)O")
131
>>> experimental_result("CNC(=O)c1ccc(N2C(=S)N(c3ccc(C#N)c(C(F)(F)F)c3)C(=O)C23CCC3)cc1F")
18.9
>>> experimental_result("CNC[C@H](O)c1ccc(O)c(O)c1")
87.6

* * *

- Test system: NOMO1
- assay.remarks: cell viability relative to DMSO control; higher = less cytotoxic
- setup.conditions: RPMI 5 mM glucose + 10% dialyzed FBS; 48 h; 0.00234 µM
value.type: cell viability (%)

>>> experimental_result("CNC1CCC(N(Cc2cccc(-c3ccncc3)c2)C(=O)c2sc3c(F)ccc(F)c3c2Cl)CC1 (centres undefined)")
99.2
>>> experimental_result("CC(=O)N[C@H]1[C@H](O[C@@H]2c3ccc(c(Cl)c3)Oc3cc4cc(c3O[C@@H]3O[C@H](CO)[C@@H](O)[C@H](O)[C@H]3NC(=O)CCCCCCCC(C)C)Oc3ccc(cc3Cl)C[C@H]3NC(=O)[C@H](N)c5ccc(O)c(c5)Oc5cc(O)cc(c5)[C@H](NC3=O)C(=O)N[C@H]4C(=O)N[C@H]3C(=O)N[C@@H]2C(=O)N[C@@H](C(=O)O)c2cc(O)cc(O[C@H]4O[C@H](CO)[C@@H](O)[C@H](O)[C@@H]4O)c2-c2cc3ccc2O)O[C@H](CO)[C@@H](O)[C@@H]1O")
131
>>> experimental_result("OC1CCC(Nc2ncc3nc(Nc4c(F)cc(F)cc4F)n([C@@H]4CCOC4)c3n2)CC1 (some centres undefined)")
119
>>> experimental_result("O=C(O)c1ccc2c(c1)nc(Nc1cccc(Cl)c1)c1ccncc12")
105
>>> experimental_result("FC1=CC=C(SC/2=N/N3\\C=N/C(=O)/C(=C3/C=C2)C4=C(Cl)C=CC=C4Cl)C(=C1)F")
114
>>> experimental_result("COC1=CC=C(C=C1)C/2=C/OC3=C(C(=CC(=C3)O)O)C2=O")
116
>>> experimental_result("CC/1=C(/N2[C@H](SC1)[C@H](NC(=O)[C@H](N)\\C3=C\\C\\C=C/C3)C2=O)C(O)=O")
109
>>> experimental_result("C[N]1C=C(C2=C1C=CC=C2)\\C3=C(\\C(=O)NC3=O)C4=C5CC(CN)CC[N]5C6=C4C=CC=C6 (centres undefined)")
100
>>> experimental_result("CC(C)C[C@H](NC(=O)[C@H](CCc1ccccc1)NC(=O)CN1CCOCC1)C(=O)N[C@@H](Cc1ccccc1)C(=O)N[C@@H](CC(C)C)C(=O)[C@@]1(C)CO1")
93.3
>>> experimental_result("CC(C)NC[C@@H](C(=O)N1CCN(c2ncnc3c2[C@H](C)C[C@H]3O)CC1)c1ccc(Cl)cc1")
89.2
>>> experimental_result("CN(NC(=O)CC(=O)NN(C)C(=S)c1ccccc1)C(=S)c1ccccc1")
89.2
>>> experimental_result("O=c1[nH]c2ccccc2n1C1CCN(Cc2ccc(-c3nc4cc5nc[nH]c5cc4nc3-c3ccccc3)cc2)CC1")
104
>>> experimental_result("C#C[C@]1(O)CC[C@H]2[C@@H]3CCc4cc(O)ccc4[C@H]3CC[C@@]21C")
103
>>> experimental_result("Cc1c(NC(=O)OC[C@@H]2COCCN2)cn2ncnc(Nc3ccc4c(cnn4Cc4cccc(F)c4)c3)c12")
80.4
>>> experimental_result("CCC[C@H]1C[C@H](C(=O)N[C@@H]([C@@H]2O[C@@H](SC)[C@@H](O)[C@@H](O)[C@H]2O)[C@H](C)Cl)N(C)C1")
117
>>> experimental_result("CCOC(=O)C/1=C(O)/C(=O)N(CC2=CC=CC=C2)C1")
118
>>> experimental_result("CC(C)C1=C(O)C=C(O)C(=C1)C/2=N/NC(=O)N2C3=CC4=C(C=C3)[N](C)C=C4")
117
>>> experimental_result("CCC(C)(C)c1ccc(CC(C)CN2C[C@@H](C)O[C@@H](C)C2)cc1 (some centres undefined)")
87.9
>>> experimental_result("CC(C)C(=O)Oc1ccc(CO)cc1[C@H](CCN(C(C)C)C(C)C)c1ccccc1")
79.6
